molecular target: PRMT5-MEP50 (Homo sapiens, UniProt O14744); assay: HMT selectivity assay; format: biochemical
Sequence (O14744 whole entry): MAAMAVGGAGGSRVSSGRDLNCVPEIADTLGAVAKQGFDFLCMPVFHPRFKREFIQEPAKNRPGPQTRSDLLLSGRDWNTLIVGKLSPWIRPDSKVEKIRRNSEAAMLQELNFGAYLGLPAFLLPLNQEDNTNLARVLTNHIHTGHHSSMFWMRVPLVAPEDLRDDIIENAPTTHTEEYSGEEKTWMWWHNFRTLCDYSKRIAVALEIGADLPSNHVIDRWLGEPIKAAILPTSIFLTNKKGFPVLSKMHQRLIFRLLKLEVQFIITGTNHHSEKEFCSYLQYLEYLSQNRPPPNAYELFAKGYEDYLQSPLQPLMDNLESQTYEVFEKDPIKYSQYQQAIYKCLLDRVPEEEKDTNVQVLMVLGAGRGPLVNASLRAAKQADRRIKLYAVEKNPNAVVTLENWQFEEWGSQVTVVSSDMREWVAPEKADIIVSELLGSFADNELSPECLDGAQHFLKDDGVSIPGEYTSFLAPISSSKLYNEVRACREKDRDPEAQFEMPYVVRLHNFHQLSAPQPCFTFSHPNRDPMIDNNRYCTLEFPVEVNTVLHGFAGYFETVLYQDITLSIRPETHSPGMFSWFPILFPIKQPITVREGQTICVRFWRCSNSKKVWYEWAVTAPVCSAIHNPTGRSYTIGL
Sequence (Q9BQA1 whole entry partner): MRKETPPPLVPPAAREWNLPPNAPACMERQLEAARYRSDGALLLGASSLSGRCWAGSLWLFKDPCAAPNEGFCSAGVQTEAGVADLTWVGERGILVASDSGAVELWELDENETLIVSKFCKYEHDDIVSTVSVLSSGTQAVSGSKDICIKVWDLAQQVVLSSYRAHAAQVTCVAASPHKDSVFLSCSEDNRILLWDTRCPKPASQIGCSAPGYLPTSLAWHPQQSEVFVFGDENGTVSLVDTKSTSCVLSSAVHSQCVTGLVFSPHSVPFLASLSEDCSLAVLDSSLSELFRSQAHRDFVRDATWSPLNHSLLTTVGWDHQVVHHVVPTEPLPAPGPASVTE

- structure-as-smiles: "Nc1ncnc2c1c(Br)cn2[C@@H]1O[C@H](CSCC[C@H](N)C(=O)O)[C@@H](O)[C@H]1O"
  IC50 [µM]: 2

* * *

biological target: UniProt O60678
Sequence (O60678 whole entry, species assumed): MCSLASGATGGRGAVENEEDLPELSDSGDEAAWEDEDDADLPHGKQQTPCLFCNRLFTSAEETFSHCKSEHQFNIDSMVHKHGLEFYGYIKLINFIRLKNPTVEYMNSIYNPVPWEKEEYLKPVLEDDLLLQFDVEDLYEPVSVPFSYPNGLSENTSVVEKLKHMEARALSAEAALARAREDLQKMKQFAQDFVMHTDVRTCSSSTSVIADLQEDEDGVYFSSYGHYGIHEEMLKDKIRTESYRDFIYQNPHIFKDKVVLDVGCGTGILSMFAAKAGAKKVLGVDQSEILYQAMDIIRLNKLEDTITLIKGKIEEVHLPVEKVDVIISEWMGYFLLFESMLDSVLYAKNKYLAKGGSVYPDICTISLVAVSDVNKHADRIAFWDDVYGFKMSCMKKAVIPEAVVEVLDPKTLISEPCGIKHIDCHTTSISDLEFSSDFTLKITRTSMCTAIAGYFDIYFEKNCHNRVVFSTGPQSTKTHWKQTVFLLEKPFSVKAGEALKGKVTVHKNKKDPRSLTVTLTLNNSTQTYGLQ
pIC50: −log10 of the molar value.
measured-property: pIC50

- structure-as-smiles: "Nc1ncnc2c1c(Br)cn2[C@@H]1O[C@H](CSCC[C@H](N)C(=O)O)[C@@H](O)[C@H]1O"
  assay-result: 5.70

These data points were gathered from paper PMC4780262.
